Before we begin, note that these IC50 values for Serine/threonine-protein kinase B-raf (Homo sapiens, UniProt P15056) originate from several publications.

// known answers, use as guide
Chem smiles: CCS(=O)(=O)Nc1ccc(F)c(C(=O)c2c[nH]c3ncc(Cl)cc23)c1F
IC50: ≤ 10000 nM

Chem smiles: COc1ncc(-c2cnc3[nH]cc(C(=O)c4c(F)ccc(NS(=O)(=O)c5ccc(F)cc5)c4F)c3c2)cn1
IC50: ≤ 10000 nM

Chem smiles: CCCS(=O)(=O)Nc1cccc(C(=O)c2c[nH]c3ncc(C)cc23)c1F
IC50: ≤ 10000 nM

Chem smiles: N#Cc1cnc2[nH]cc(C(=O)c3cccc(NS(=O)(=O)c4cccc(F)c4)c3F)c2c1
IC50: < 10 nM

Chem smiles: Cc1cc(NC(=O)Nc2ccc(Cl)c(C(F)(F)F)c2)ccc1Oc1cc(NC(=O)C2CC2)ncn1
IC50: 97 nM

Chem smiles: CCCS(=O)(=O)Nc1ccc(F)c(C(=O)c2c[nH]c3ncc(-c4ccc(SC)nc4)cc23)c1F
IC50: ≤ 10000 nM

// switching to the query molecule
The value of IC50 measured for the molecule `COc1cc(Cc2c[nH]c3ncccc23)ccc1OCc1ccccc1` turned out to be ≤ 10000 nM
